Values were extracted from patent US9334269B2.

- Assay target: human Nav1.7 (hNav1.7) (Homo sapiens)
- Construct: expressed in transfected cells
- Sequence (Q15858 whole entry): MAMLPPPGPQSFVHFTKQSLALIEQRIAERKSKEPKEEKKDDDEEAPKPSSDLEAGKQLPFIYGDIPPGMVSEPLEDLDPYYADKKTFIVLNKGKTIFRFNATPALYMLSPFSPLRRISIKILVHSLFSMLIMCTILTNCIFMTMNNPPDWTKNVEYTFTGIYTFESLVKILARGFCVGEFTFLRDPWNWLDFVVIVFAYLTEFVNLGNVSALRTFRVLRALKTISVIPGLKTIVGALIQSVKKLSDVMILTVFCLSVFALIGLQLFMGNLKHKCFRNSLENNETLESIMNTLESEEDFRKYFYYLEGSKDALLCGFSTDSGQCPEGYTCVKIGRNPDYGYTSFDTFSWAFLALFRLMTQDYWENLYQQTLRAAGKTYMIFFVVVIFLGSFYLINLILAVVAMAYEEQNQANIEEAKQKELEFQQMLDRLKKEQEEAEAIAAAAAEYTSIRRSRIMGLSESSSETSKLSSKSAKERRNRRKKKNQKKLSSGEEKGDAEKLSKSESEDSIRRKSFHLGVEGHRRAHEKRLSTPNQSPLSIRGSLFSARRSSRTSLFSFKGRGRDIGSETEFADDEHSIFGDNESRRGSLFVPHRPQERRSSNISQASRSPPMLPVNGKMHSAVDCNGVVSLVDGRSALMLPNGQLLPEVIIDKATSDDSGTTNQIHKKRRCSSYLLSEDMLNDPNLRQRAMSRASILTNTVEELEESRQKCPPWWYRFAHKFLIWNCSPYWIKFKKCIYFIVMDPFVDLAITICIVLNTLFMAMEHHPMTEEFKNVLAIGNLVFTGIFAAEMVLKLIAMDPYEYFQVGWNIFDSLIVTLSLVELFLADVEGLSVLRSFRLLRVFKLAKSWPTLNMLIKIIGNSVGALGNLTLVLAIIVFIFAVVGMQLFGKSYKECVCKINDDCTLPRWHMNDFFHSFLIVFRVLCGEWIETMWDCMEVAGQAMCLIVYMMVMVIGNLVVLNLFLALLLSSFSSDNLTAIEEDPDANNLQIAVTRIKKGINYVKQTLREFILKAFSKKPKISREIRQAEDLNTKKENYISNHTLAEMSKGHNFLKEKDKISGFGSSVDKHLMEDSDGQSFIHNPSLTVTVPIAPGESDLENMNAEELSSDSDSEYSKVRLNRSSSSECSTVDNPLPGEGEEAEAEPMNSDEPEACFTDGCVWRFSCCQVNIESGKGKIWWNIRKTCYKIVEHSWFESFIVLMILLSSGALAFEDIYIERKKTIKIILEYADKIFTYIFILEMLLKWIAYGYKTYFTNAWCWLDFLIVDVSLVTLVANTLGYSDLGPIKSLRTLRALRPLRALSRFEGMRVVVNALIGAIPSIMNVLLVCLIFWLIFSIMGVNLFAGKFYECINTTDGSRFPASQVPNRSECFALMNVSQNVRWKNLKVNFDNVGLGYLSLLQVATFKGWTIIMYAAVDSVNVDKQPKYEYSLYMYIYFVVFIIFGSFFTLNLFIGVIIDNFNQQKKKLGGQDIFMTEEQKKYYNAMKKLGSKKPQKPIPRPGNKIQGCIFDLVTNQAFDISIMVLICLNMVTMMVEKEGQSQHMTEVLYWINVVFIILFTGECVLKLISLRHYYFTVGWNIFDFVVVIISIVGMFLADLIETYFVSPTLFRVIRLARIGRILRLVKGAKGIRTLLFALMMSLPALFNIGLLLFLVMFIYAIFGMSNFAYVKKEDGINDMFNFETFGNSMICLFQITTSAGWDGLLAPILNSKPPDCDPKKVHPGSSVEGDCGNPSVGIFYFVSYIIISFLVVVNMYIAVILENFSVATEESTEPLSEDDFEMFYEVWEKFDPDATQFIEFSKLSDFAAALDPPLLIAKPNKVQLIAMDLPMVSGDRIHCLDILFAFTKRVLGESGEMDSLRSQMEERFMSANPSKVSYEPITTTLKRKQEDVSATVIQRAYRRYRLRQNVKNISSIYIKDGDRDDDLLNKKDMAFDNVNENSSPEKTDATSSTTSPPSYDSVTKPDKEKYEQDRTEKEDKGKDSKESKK
- Run description: hNav1.7 whole-cell patch-clamp electrophysiology (automated PatchXpress 7000A or manual) in stably expressing 293 cells
- Type: cell-based
- Measurement conditions: average IC50, human Nav1.7
Observation type: log10 of IC50 (log10 of the value in µM)
Use the decimal logarithm of IC50 (µM).

- Cpd smiles: "CNC(=O)c1cccc(Nc2ncnc(N3CC(COc4ccc(Cl)cc4)C3)n2)c1"
  Assay target: "human Nav1.7 (hNav1.7) (Homo sapiens)"
  log10 of IC50: -0.30
- Cpd smiles: "CNC(=O)c1cccc(Nc2ncnc(N3CCC(OCc4cccc(C(F)(F)F)c4)CC3)n2)c1"
  Assay target: "human Nav1.7 (hNav1.7) (Homo sapiens)"
  log10 of IC50: 1.03
- Cpd smiles: "CNC(=O)c1cccc(Nc2ncnc(N3CC(Oc4ccc(F)c(F)c4F)C3)n2)c1"
  Assay target: "human Nav1.7 (hNav1.7) (Homo sapiens)"
  log10 of IC50: 0.97
- Cpd smiles: "CNC(=O)c1cccc(Nc2ncnc(N3CC(COc4cccc(OC)c4)C3)n2)c1"
  Assay target: "human Nav1.7 (hNav1.7) (Homo sapiens)"
  log10 of IC50: 1.08
- Cpd smiles: "CNC(=O)c1cccc(Nc2ncnc(N3CC(Oc4cccc(Cl)c4)C3)n2)c1"
  Assay target: "human Nav1.7 (hNav1.7) (Homo sapiens)"
  log10 of IC50: -0.42
- Cpd smiles: "CNC(=O)c1cc(Nc2ncnc(N3CC(COc4ccc(C(F)(F)F)cc4)C3)n2)ccc1Cl"
  Assay target: "human Nav1.7 (hNav1.7) (Homo sapiens)"
  log10 of IC50: 0.14

// log10 of IC50 (human Nav1.7 (hNav1.7) (Homo sapiens)) for CNC(=O)c1cccc(Nc2ncnc(N3CCC(Oc4cccc(F)c4)CC3)n2)c1 = -0.19

// log10 of IC50 (human Nav1.7 (hNav1.7) (Homo sapiens)) for CNC(=O)c1cccc(Nc2ncnc(N3CCCN(c4ncc(C(F)(F)F)cc4Cl)CC3)n2)c1 = 0.21

// log10 of IC50 (human Nav1.7 (hNav1.7) (Homo sapiens)) for CNC(=O)c1cccc(Nc2ncnc(NCCCOc3ccc(C(F)(F)F)cc3)n2)c1 = 0.63

// log10 of IC50 (human Nav1.7 (hNav1.7) (Homo sapiens)) for CNC(=O)c1cc(Nc2ncnc(N3CC(Oc4ccc(F)cc4)C3)n2)ccc1F = -0.12

// log10 of IC50 (human Nav1.7 (hNav1.7) (Homo sapiens)) for CNC(=O)c1cc(Nc2ncnc(N3CC(Oc4ccc(Cl)cc4)C3)n2)ccc1O = 0.95

// log10 of IC50 (human Nav1.7 (hNav1.7) (Homo sapiens)) for CNC(=O)c1cccc(Nc2ncnc(N3CCC(c4ccc(C#N)cc4)CC3)n2)c1 = 0.63

// log10 of IC50 (human Nav1.7 (hNav1.7) (Homo sapiens)) for O=C(NCC(F)(F)F)c1cccc(Nc2ncnc(N3CC(Oc4ccc(F)cc4)C3)n2)c1 = 0.66

// log10 of IC50 (human Nav1.7 (hNav1.7) (Homo sapiens)) for CNC(=O)c1cccc(Nc2ncnc(N3CCC(Oc4ccc(Cl)c(F)c4)CC3)n2)c1 = 0.03

// log10 of IC50 (human Nav1.7 (hNav1.7) (Homo sapiens)) for CNC(=O)c1cccc(Nc2ncnc(N3CC(Oc4ccccc4OC)C3)n2)c1 = 0.87

// log10 of IC50 (human Nav1.7 (hNav1.7) (Homo sapiens)) for CNC(=O)c1cccc(Nc2ncnc(N3CC(Oc4ccc(F)cc4C)C3)n2)c1 = -0.54

// log10 of IC50 (human Nav1.7 (hNav1.7) (Homo sapiens)) for CNC(=O)c1cccc(Nc2ncnc(N3CCN(c4ccc(OC(F)(F)F)cc4)CC3)n2)c1 = 0.03
